Biological target: Recombinant SARS-CoV-2 3CL Protease (Severe acute respiratory syndrome coronavirus 2 (2019-nCoV) (SARS-CoV-2), UniProt P0DTD1)
Assay: biochemical
Type: biochemical
Settings: 50% SARS-CoV-2 3CL protease inhibitory concentration; read-out: IC50
Give measured IC50 for each item. Keep answers brief.

Data point: N#CCn1c(N2CC(O)(c3nccs3)C2)c(-c2ccc(F)c(Cl)c2)c(=O)n(-c2cncc(Cl)c2)c1=O [Compound I-256] ; IC50 = < 0.01 µM

Briefly, IC50 measured for N#CCn1c(N2CC3(C2)CC(F)(F)C3)c(-c2ccc(F)c(Cl)c2)c(=O)n(-c2cc(=O)cc(Br)[nH]2)c1=O [Compound I-222] : > 0.1 µM

# IC50 of CC1(O)CN(c2c(-c3ccc(F)c(Cl)c3)c(=O)n(-c3cncc(C(F)F)n3)c(=O)n2CC#N)C1 [Compound I-382] = < 0.01 µM

Please give IC50 for each item listed below.
1. Cc1cncc(-n2c(=O)c(Cc3cc(F)c(F)c(F)c3)c(N3Cc4ccccc4C3)n(CC#N)c2=O)c1 [Compound I-205]
2. Cc1cncc(-n2c(=O)c(-c3ccc(F)c(Cl)c3)c(-c3cc4ccccc4s3)n(CC#N)c2=O)c1 [Compound I-020]
3. N#CCn1c(N2CCC(F)(F)CC2)c(-c2cc(F)c(F)c(Cl)c2)c(=O)n(-c2cncc(Cl)c2)c1=O [Compound I-327]

["0.00076 µM", "< 0.01 µM", "< 0.01 µM"]

Hello, I would appreciate it if you could give IC50 for each entry below.
1. CC1(O)CC2(CN(c3c(-c4ccc(F)c(Cl)c4)c(=O)n(-c4cnc5cc(F)ccn45)c(=O)n3CC#N)C2)C1 [Compound I-137]
2. N#CCn1c(N2CC(O)(C(F)(F)F)C2)c(-c2ccc(F)c(F)c2)c(=O)n(-c2cncc(Cl)c2)c1=O [Compound I-317]

0.01 to 0.1 µM
< 0.01 µM

* * *

Biological target: Recombinant SARS-CoV-2 3CL Protease (Severe acute respiratory syndrome coronavirus 2 (2019-nCoV) (SARS-CoV-2), UniProt P0DTD1)
Assay: biochemical
Format: biochemical
Settings: 50% SARS-CoV-2 3CL protease inhibitory concentration; read-out: IC50
pIC50: −log10 of the molar value.
metric-name: pIC50

Solved entries (count: 5):
Noted for N#CCn1c(N2CCC(C(F)(F)F)CC2)c(-c2ccc(F)c(Cl)c2)c(=O)n(-c2cncc(Cl)c2)c1=O : its pIC50 reads > 8.00

Lookup result for N#CCn1c(N2CCC3(CNC(=O)C3)C2)c(-c2ccc(F)c(Cl)c2)c(=O)n(-c2cnc3cc(Cl)ccn23)c1=O (racemic) ; measured pIC50: 7.00 to 8.00

Given item Cc1cncc(-n2c(=O)c(-c3ccc(F)c(Cl)c3)c(Oc3ccc(F)cc3Cl)n(CC#N)c2=O)c1 , the value recorded as its pIC50 is > 8.00

pIC50 recorded for this molecule, N#CCn1c(N2CC(OC(F)(F)F)C2)c(-c2ccc(F)c(Cl)c2)c(=O)n(-c2cncc(C#N)c2)c1=O , is > 8.00

// pIC50 value for N#CCn1c(N2Cc3ccccc3C2)c(Cc2cc(F)c(F)c(F)c2)c(=O)n(C2CCNC(=O)C2)c1=O (racemic) : < 7.00

Please supply pIC50 for each of the following items, keeping them in order.
1. Cc1cncc(-n2c(=O)c(Oc3cc(F)c(F)c(F)c3)c(Oc3cc(F)c(F)c(F)c3)n(CC#N)c2=O)c1
2. N#CCn1c(N2CC3(CCCO3)C2)c(-c2ccc(F)c(Cl)c2)c(=O)n(-c2cncc(Cl)c2)c1=O

< 7.00
> 8.00

* * *

Can you tell me IC50 for the items I'm about to list?
Molecular target: Recombinant SARS-CoV-2 3CL Protease (Severe acute respiratory syndrome coronavirus 2 (2019-nCoV) (SARS-CoV-2), UniProt P0DTD1)
Experiment: biochemical
Assay type: biochemical
Details: 50% SARS-CoV-2 3CL protease inhibitory concentration; read-out: IC50

Input N#CCn1c(N2CC3CNC(=O)C3C2)c(-c2ccc(F)c(Cl)c2)c(=O)n(-c2cncc(Cl)c2)c1=O (racemic) . Output IC50: < 10 nM

# map each compound to its IC50
1. C[C@@H](C#N)n1c(N2CC3(CCOC3)C2)c(-c2ccc(F)c(Cl)c2)c(=O)n(-c2cncc(Cl)c2)c1=O (single isomer, unassigned)
2. N#CCc1c(N2Cc3ccccc3C2)n(Cc2cc(F)c(F)c(F)c2)c(=O)n(-c2cncc(Cl)c2)c1=O

["< 10 nM", "27 nM"]

Lab note: C[C@@H](C#N)n1c(N2CC[C@](O)(C(F)F)C2)c(-c2ccc(F)c(Cl)c2)c(=O)n(-c2cncc(Cl)c2)c1=O (single isomer, unassigned) gave IC50 of < 10 nM
